conditions: in ethylene glycol, 283.15 K

STRUCTURE_AS_SMILES: Nc1cc(-c2ccncc2)c[nH]c1=O
solubility (mole fraction): 2.33e-05

----------
conditions: in methanol, 303.15 K

STRUCTURE_AS_SMILES: Nc1cc(-c2ccncc2)c[nH]c1=O
solubility (mole fraction): 0.000111

----------
conditions: in methanol, 278.15 K

STRUCTURE_AS_SMILES: Nc1cc(-c2ccncc2)c[nH]c1=O
solubility (mole fraction): 5.18e-05

----------
details: in ethylene glycol, 308.15 K

STRUCTURE_AS_SMILES: Nc1cc(-c2ccncc2)c[nH]c1=O
solubility (mole fraction): 4.95e-05
